test.system: recombinant His-tag Wip1(2-420) protein (amino acids #2-420) (Homo sapiens (Human), UniProt O15297)
Sequence (O15297 2-420): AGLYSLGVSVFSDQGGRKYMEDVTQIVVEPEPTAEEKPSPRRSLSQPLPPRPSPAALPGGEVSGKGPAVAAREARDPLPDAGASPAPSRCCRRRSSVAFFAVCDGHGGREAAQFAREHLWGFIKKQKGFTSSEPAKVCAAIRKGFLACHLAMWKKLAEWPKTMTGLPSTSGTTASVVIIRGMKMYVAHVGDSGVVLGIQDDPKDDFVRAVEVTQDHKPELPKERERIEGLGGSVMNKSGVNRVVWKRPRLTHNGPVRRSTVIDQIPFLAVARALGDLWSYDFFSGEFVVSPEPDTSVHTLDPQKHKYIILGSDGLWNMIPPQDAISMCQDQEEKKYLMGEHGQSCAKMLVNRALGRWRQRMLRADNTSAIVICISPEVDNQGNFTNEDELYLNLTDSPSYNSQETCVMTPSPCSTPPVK
assay.summary: Wip1(2-420) phosphatase enzyme FDP assay
test.context: fluorescein diphosphate (FDP) substrate, RT 2 hours, fluorescence Ex485/Em535; read-out: WIP1 (Truncated 2-420) FDP Assay: IC50
The entries below are paired with their reported IC50.
// note: answer is a bare numeric in nM

Solved entries:
- molecule: "COc1ncc(Cl)cc1N[C@H](C)c1ccc(C(=O)N[C@@H](CC2CCCC2)C(=O)NC23CC(C#N)(C2)C3)s1 [Compound 83]"
  IC50 [nM]: 484
- molecule: "Cc1ncc(Cl)cc1N[C@@H](Cc1ccc(F)cc1)c1ccc(C(=O)N[C@@H](CC2CCCC2)C(=O)NC2CC2)s1 [Compound 223]"
  IC50 [nM]: 11
- molecule: "Cc1cc(NC(=O)[C@H](CC2CCCC2)NC(=O)c2cnc([C@@H](C)Nc3cccc(Cl)c3)s2)ccn1 [Compound 120]"
  IC50 [nM]: 7
- molecule: "Cc1ncc(Cl)cc1N[C@@H](C)c1ccc(C(=O)N[C@@H](CC2CCCCC2)C(=O)N[C@H]2C[C@H](F)C2)s1 [Compound 108]"
  IC50 [nM]: 5
- molecule: "Cc1ncc(Cl)cc1NC(C)c1ccc(C(=O)N[C@@H](CC2CCCC2)C(=O)NC23CC(C2)C3)s1 (stereo partly shown) [Compound 10]"
  IC50 [nM]: 10
- molecule: "COc1ccc(Cl)cc1N[C@@H](C)c1ccc(C(=O)N[C@@H](CC2CCCC2)C(=O)NC2CC2)s1 [Compound 254]"
  IC50 [nM]: 11
- molecule: "Cc1ncc(Cl)cc1N[C@@H](C)c1ccc(C(=O)N[C@@H](CC2CCCC2)C(=O)N[C@H]2C[C@@H](C#N)C2)s1 [Compound 221]"
  IC50 [nM]: 6
- molecule: "CC[C@H](Nc1cc(Cl)cnc1C)c1ccc(C(=O)N[C@@H](CC2CCCC2)C(=O)N[C@@H]2CC2(F)F)s1 [Compound 47]"
  IC50 [nM]: 11
- molecule: "Cc1ncc(Cl)cc1N[C@@H](C)c1ccc(C(=O)N[C@@H](CC2CCCC2)C(=O)NC2CCS(=O)(=O)CC2)s1 [Compound 58]"
  IC50 [nM]: 9
- molecule: "Cc1cc(NC(=O)[C@H](CC2CCCC2)NC(=O)c2cnc([C@H](C)Nc3cccc(Cl)c3)s2)ccn1 [Compound 119]"
  IC50 [nM]: 70

Task: Please look up its IC50: CNC(=O)c1ncc(Cl)cc1N[C@@H](C)c1ccc(C(=O)N[C@@H](CC2CCCC2)C(=O)NC2CC2)s1 [Compound 196]
Result: 6

Task: // repeat for Cc1ncc(Cl)cc1N[C@@H](C)c1ncc(C(=O)N[C@@H](CC2CCCC2)C(=O)NC23CC(C2)C3)s1 [Compound 278] and report
Result: 19

Task: // repeat for CC(Nc1cccc(Cl)c1)c1ccc(C(=O)N[C@@H](CC2CCCC2)C(=O)NC2CC2)s1 (stereo partly shown) [Compound 4] and report
Result: 79

* * *

test.system: recombinant His-tag Wip1(2-420) protein (amino acids #2-420) (Homo sapiens (Human))
assay.summary: Wip1(2-420) phosphatase enzyme FDP assay
test.context: fluorescein diphosphate (FDP) substrate, RT 2 hours, fluorescence Ex485/Em535; read-out: WIP1 (Truncated 2-420) FDP Assay: IC50
The entries below are paired with their reported pIC50.
Note: pIC50 values are expressed as the negative base-10 logarithm of concentration in M.

Task: Please look up its pIC50: `COc1ncc(Cl)cc1N[C@H](C)c1ccc(C(=O)N[C@@H](CC2CCCC2)C(=O)N[C@@H]2CC2(F)F)s1`
Result: 8.10

Task: // repeat for `Cc1ncc(Cl)cc1N[C@@H](C)c1ccc(C(=O)N[C@@H](CC2CCCC2)C(N)=O)s1` and report
Result: 7.72

Task: // repeat for `Cc1ncc(Cl)cc1N[C@@H](C)c1ccc(C(=O)N[C@@H](CC2CCCC2)C(=O)N[C@H]2C[C@H](F)C2)s1` and report
Result: 8.52

* * *

test.system: recombinant His-tag Wip1 full length protein (amino acids #1-605) (Homo sapiens (Human), UniProt O15297)
Sequence (O15297 whole entry): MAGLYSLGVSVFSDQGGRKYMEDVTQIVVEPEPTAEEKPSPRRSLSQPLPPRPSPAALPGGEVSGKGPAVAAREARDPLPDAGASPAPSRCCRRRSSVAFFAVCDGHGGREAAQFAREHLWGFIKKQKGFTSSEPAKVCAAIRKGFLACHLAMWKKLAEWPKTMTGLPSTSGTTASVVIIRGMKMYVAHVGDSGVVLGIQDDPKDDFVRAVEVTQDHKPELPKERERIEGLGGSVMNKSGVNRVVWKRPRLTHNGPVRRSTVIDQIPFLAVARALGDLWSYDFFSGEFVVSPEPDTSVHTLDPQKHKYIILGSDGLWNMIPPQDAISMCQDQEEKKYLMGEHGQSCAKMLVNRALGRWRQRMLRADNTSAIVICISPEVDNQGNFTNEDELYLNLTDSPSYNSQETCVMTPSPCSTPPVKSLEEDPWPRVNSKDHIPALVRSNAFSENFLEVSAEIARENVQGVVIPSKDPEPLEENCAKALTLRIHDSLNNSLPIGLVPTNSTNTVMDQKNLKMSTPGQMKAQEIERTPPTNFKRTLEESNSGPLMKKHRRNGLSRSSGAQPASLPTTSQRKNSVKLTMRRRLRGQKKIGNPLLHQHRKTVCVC
assay.summary: Wip1 full length phosphatase enzyme FDP assay
test.context: fluorescein diphosphate (FDP) substrate, RT 2 hours, fluorescence Ex485/Em535
value.type: IC50 (µM)
// note: answer is a bare numeric in µM

Solved entries:
- molecule: "Cc1ncc(Cl)cc1N[C@@H](C)c1ccc(C(=O)N[C@@H](CC2CCCC2)C(=O)NC2CC3CCC(C2)O3)s1 (some centres unmarked)"
  unit.text: "µM"
  IC50: 0.022
- molecule: "Cc1ncc(Cl)cc1N[C@@H](C)c1ccc(C(=O)N[C@@H](CC2CCCC2)C(=O)NC2CCS(=O)(=O)CC2)s1"
  unit.text: "µM"
  IC50: 0.012
- molecule: "Cc1ncc(Cl)cc1N[C@@H](C)c1ncc(C(=O)N[C@@H](CC2CCCC2)C(=O)NC23CC(C2)C3)s1"
  unit.text: "µM"
  IC50: 0.03
- molecule: "COc1ncc(Cl)cc1N[C@@H](C)c1ccc(C(=O)N[C@@H](CC2CCCC2)C(=O)NC23CC(C2)C3)s1"
  unit.text: "µM"
  IC50: 0.007
- molecule: "O=C(N[C@@H](CC1CCCCC1)C(=O)Nc1ccccn1)c1cnc(CNc2cncc(Cl)c2)s1"
  unit.text: "µM"
  IC50: 0.015

Task: Please look up its IC50: `C[C@@H](Nc1ccc(F)c(Cl)c1)c1ccc(C(=O)N[C@@H](CC2CCCC2)C(=O)NC2CC2)s1`
Result: 0.068

Task: // repeat for `Cc1ncc(Cl)cc1N[C@@H](C)c1ccc(C(=O)N[C@@H](CC2CCCC2)C(=O)NC2CCN(C)CC2)s1` and report
Result: 0.073

Task: // repeat for `Cc1cc(NC(=O)[C@@H](NC(=O)c2ccc([C@H](C)Nc3cc(Cl)cnc3C)s2)C2CCCCC2)ccn1` and report
Result: 0.015

Task: // repeat for `Cc1ncc(Cl)cc1N[C@@H](C)c1ccc(C(=O)N[C@@H](CC2CCCC2)C(=O)N[C@@H]2C[C@@H]2F)s1` and report
Result: 0.01

Task: // repeat for `CC[C@@H](Nc1cc(Cl)cnc1C)c1ccc(C(=O)N[C@@H](CC2CCCC2)C(=O)NC2CC2)s1` and report
Result: 0.332

Task: // repeat for `Cc1ncc(Cl)cc1N[C@@H](C)c1ccc(C(=O)N[C@@H](CC2CCCC2)C(=O)NC23CC(C#N)(C2)C3)s1` and report
Result: 0.016

Task: // repeat for `COc1ncc(Cl)cc1N[C@H](C)c1ccc(C(=O)N[C@@H](CC2CCCC2)C(=O)N[C@@H]2CC2(F)F)s1` and report
Result: 0.01

Task: // repeat for `COc1ncc(Cl)cc1N[C@@H](C)c1ccc(C(=O)N[C@@H](CC2CCCC2)C(=O)NC23CC(C#N)(C2)C3)s1` and report
Result: 0.02

Task: // repeat for Cc1cc(NC(=O)[C@H](CC2CCCC2)NC(=O)c2cnc(C(C)Nc3cccc(Cl)c3)s2)ccn1 (some centres unmarked) and report
Result: 0.019

* * *

test.system: recombinant His-tag Wip1(2-420) protein (amino acids #2-420) (Homo sapiens (Human))
assay.summary: Wip1(2-420) phosphatase enzyme FDP assay
Format: biochemical
test.context: fluorescein diphosphate (FDP) substrate, RT 2 hours, fluorescence Ex485/Em535; read-out: WIP1 (Truncated 2-420) FDP Assay: IC50
The entries below are paired with their reported IC50.
// note: answer is a bare numeric in nM

Solved entries:
- compound: "Cc1ncc(Cl)cc1N[C@@H](C)c1ccc(C(=O)N[C@@H](CC2CCCC2)C(=O)Nc2ccc3ncc(F)cc3c2)s1 [Compound 178]"
  test.system: "recombinant His-tag Wip1(2-420) protein (amino acids #2-420) (Homo sapiens (Human))"
  IC50 [nM]: 5
- compound: "Cc1ncc(Cl)cc1N[C@@H](C)c1ccc(C(=O)NC(CC2CCCC2)C(=O)Nc2c[nH]nn2)s1 (some centres unmarked) [Compound 134]"
  test.system: "recombinant His-tag Wip1(2-420) protein (amino acids #2-420) (Homo sapiens (Human))"
  IC50 [nM]: 4
- compound: "Cc1ncc(Cl)cc1N[C@@H](C)c1ccc(C(=O)N[C@@H](CC2CCCC2)C(=O)NC23COC(C2)C3)s1 [Compound 113]"
  test.system: "recombinant His-tag Wip1(2-420) protein (amino acids #2-420) (Homo sapiens (Human))"
  IC50 [nM]: 11
- compound: "Cc1ncc(Cl)cc1N[C@H](Cn1cccn1)c1ccc(C(=O)N[C@@H](CC2CCCC2)C(=O)NC2CC2)s1 [Compound 165]"
  test.system: "recombinant His-tag Wip1(2-420) protein (amino acids #2-420) (Homo sapiens (Human))"
  IC50 [nM]: 378
- compound: "C[C@@H](Nc1cc(Cl)cnc1C(N)=O)c1ccc(C(=O)N[C@@H](CC2CCCC2)C(=O)Nc2cnn(C)c2)s1 [Compound 137]"
  test.system: "recombinant His-tag Wip1(2-420) protein (amino acids #2-420) (Homo sapiens (Human))"
  IC50 [nM]: 54
- compound: "COC(=O)c1ncc(Cl)cc1N[C@@H](C)c1ccc(C(=O)N[C@@H](CC2CCCC2)C(=O)NC2CC2)s1 [Compound 102]"
  test.system: "recombinant His-tag Wip1(2-420) protein (amino acids #2-420) (Homo sapiens (Human))"
  IC50 [nM]: 10
- compound: "Cc1ncc(Cl)cc1N[C@@H](C)c1ccc(C(=O)N[C@H](C(=O)Nc2cnn(C)c2)C2CCCCC2)s1 [Compound 177]"
  test.system: "recombinant His-tag Wip1(2-420) protein (amino acids #2-420) (Homo sapiens (Human))"
  IC50 [nM]: 18
- compound: "Cc1ncc(Cl)cc1NC(C)c1ccc(C(=O)N[C@@H](CC2CCCC2)C(=O)NC2CC2(F)F)s1 (some centres unmarked) [Compound 13]"
  test.system: "recombinant His-tag Wip1(2-420) protein (amino acids #2-420) (Homo sapiens (Human))"
  IC50 [nM]: 10

Task: Please look up its IC50: C[C@@H](Nc1cc(Cl)cnc1-c1cccnc1)c1ccc(C(=O)N[C@@H](CC2CCCC2)C(=O)NC2CC2)s1 [Compound 233]
Result: 293

Task: // repeat for Cc1ncc(Cl)cc1N[C@@H](C)c1ccc(C(=O)N[C@@H](CC2CCCC2)C(=O)Nc2cn[nH]c2)s1 [Compound 227] and report
Result: 8

Task: // repeat for O=C(N[C@@H](CC1CCCCC1)C(=O)Nc1ccccn1)c1cnc(CNc2cncc(Cl)c2)s1 [Compound 302] and report
Result: 55

Task: // repeat for C[C@@H](c1ccc(C(=O)N[C@@H](CC2CCCC2)C(=O)NC23CC(C2)C3)s1)N(C)c1cncc(Cl)c1 [Compound 96] and report
Result: 76

Task: // repeat for Cc1cc(NC(=O)[C@H](CCC(C)C)NC(=O)c2ccc([C@H](C)Nc3cc(Cl)cnc3C)s2)ccn1 [Compound 210] and report
Result: 7
